# TARGET_UNDER_TEST: Mitogen-activated protein kinase 10 (Homo sapiens, UniProt P53779)
# Sequence (P53779 whole entry): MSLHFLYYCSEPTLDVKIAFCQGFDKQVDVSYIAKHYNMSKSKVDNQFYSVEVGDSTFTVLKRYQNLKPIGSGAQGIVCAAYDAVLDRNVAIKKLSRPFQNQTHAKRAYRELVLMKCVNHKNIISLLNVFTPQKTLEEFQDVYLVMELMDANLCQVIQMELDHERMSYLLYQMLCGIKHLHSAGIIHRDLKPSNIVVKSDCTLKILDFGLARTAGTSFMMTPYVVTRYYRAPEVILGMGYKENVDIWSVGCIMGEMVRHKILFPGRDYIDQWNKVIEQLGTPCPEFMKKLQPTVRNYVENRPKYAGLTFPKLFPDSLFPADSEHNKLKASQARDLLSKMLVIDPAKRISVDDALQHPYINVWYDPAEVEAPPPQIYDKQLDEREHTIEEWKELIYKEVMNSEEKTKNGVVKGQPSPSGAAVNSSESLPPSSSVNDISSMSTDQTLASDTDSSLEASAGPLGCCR
# ASSAY_PROTOCOL: Inhibition of JNK3 by nonradioactive JNK3 assay
PROPERTY: IC50 (µM)

smiles_code=CC(C)Nc1cc(-c2nc3ccccc3nc2-c2ccc(F)cc2)ccn1 property=IC50 numeric_result=3.95

* * *

This section presents molecules with their documented pIC50 values.
# TARGET_UNDER_TEST: Mitogen-activated protein kinase 14 (Homo sapiens, UniProt Q16539)
# Sequence (Q16539 whole entry): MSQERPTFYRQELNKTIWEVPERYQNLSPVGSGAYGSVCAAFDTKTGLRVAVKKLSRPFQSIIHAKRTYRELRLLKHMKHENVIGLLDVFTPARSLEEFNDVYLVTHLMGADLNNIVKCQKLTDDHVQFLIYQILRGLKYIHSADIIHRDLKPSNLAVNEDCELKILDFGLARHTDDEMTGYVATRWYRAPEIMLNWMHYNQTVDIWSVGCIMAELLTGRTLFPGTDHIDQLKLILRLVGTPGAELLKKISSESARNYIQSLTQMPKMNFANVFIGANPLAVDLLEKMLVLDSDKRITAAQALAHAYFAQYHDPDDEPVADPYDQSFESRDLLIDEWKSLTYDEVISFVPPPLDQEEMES
# ASSAY_PROTOCOL: Inhibition of p38alpha-mediated ATF2 phosphorylation in presence of ATP
pIC50: −log10 of the molar value.
PROPERTY: pIC50

smiles_code=C[C@@H](Nc1cc(-c2nc3ccccc3nc2-c2ccc(F)cc2)ccn1)c1ccccc1 numeric_result=5.32
smiles_code=CC(C)CNc1cc(-c2nc3ccccc3nc2-c2ccc(F)cc2)ccn1 numeric_result=6.19
smiles_code=CC(C)Nc1cc(-c2nc3cc(Cl)c(Cl)cc3nc2-c2ccc(F)cc2)ccn1 numeric_result=6.39
smiles_code=O[C@H]1CC[C@H](Nc2cc(-c3nc4ccccc4nc3-c3ccc(F)cc3)ccn2)CC1 numeric_result=6.68
smiles_code=CC(C)Nc1cc(-c2nc3ncccc3nc2-c2ccc(F)cc2)ccn1 numeric_result=6.48
smiles_code=CC(C)[C@@H](C)Nc1cc(-c2nc3ccccc3nc2-c2ccc(F)cc2)ccn1 numeric_result=5.80

// data source = ChEMBL document CHEMBL1156828
